Below are MIC values measured for E. coli 13351.
Enter your answer as a number in mg/L; do not include the unit.

Use the examples below as a reference point.
molecule: O=C(NOC[C@H]1C[C@@H](F)CN1)[C@@H]1CC[C@@H]2CN1C(=O)N2OS(=O)(=O)O
quantityUnit: mg/L
MIC: 2
//
molecule: O=C(NOC[C@@H]1C[C@H](F)CN1)[C@@H]1CC[C@@H]2CN1C(=O)N2OS(=O)(=O)O
quantityUnit: mg/L
MIC: 0.5
//
molecule: O=C(NOC[C@@H]1C[C@@H](F)CN1)[C@@H]1CC[C@@H]2CN1C(=O)N2OS(=O)(=O)O
quantityUnit: mg/L
MIC: 1

# next compound below
Let me check: O=C(NOC[C@H]1C[C@H](F)CN1)[C@@H]1CC[C@@H]2CN1C(=O)N2OS(=O)(=O)O , system E. coli 13351, measured MIC is 1

---

tested on: E. coli M 50
outcomeMeasure: MIC
Note: a bare number is incomplete; add the unit.

molecule: O=C(NOC[C@H]1C[C@H](F)CN1)[C@@H]1CC[C@@H]2CN1C(=O)N2OS(=O)(=O)O [Example 3]
MIC: 1 µg/mL

Lab entry: E. coli M 50 assay, molecule O=C(NOC[C@@H]1C[C@H](F)CN1)[C@@H]1CC[C@@H]2CN1C(=O)N2OS(=O)(=O)O [Example 1] , MIC = 0.5 µg/mL

Measured MIC (E. coli M 50), entry O=C(NOC[C@@H]1C[C@@H](F)CN1)[C@@H]1CC[C@@H]2CN1C(=O)N2OS(=O)(=O)O [Example 2] : 2 µg/mL

Here O=C(NOC[C@H]1C[C@@H](F)CN1)[C@@H]1CC[C@@H]2CN1C(=O)N2OS(=O)(=O)O [Example 4] was tested on E. coli M 50, and its MIC came to 2 µg/mL

---

This document collects MIC values reported for E. coli 13353.
# value in µg/mL; strip the unit string

Check out these entries, answers already filled in.
molecule: O=C(NOC[C@@H]1C[C@@H](F)CN1)[C@@H]1CC[C@@H]2CN1C(=O)N2OS(=O)(=O)O
quantityUnit: µg/mL
MIC: 1
//
molecule: O=C(NOC[C@@H]1C[C@H](F)CN1)[C@@H]1CC[C@@H]2CN1C(=O)N2OS(=O)(=O)O
quantityUnit: µg/mL
MIC: 0.5
//
molecule: O=C(NOC[C@H]1C[C@@H](F)CN1)[C@@H]1CC[C@@H]2CN1C(=O)N2OS(=O)(=O)O
quantityUnit: µg/mL
MIC: 1

Proceeding to the next molecule to report its MIC.
Simply: O=C(NOC[C@H]1C[C@H](F)CN1)[C@@H]1CC[C@@H]2CN1C(=O)N2OS(=O)(=O)O , E. coli 13353, MIC = 1

---

tested on: K. pneumoniae H522
outcomeMeasure: MIC (µg/mL)
State just the number; it will be interpreted in µg/mL.

Use the examples below as a reference point.
molecule: O=C(NOC[C@@H]1C[C@H](F)CN1)[C@@H]1CC[C@@H]2CN1C(=O)N2OS(=O)(=O)O
quantityUnit: µg/mL
resultNumber: 1
//
molecule: O=C(NOC[C@@H]1C[C@@H](F)CN1)[C@@H]1CC[C@@H]2CN1C(=O)N2OS(=O)(=O)O
quantityUnit: µg/mL
resultNumber: 4
//
molecule: O=C(NOC[C@H]1C[C@H](F)CN1)[C@@H]1CC[C@@H]2CN1C(=O)N2OS(=O)(=O)O
quantityUnit: µg/mL
resultNumber: 2

// switching to the query molecule
Form field MIC for item O=C(NOC[C@H]1C[C@@H](F)CN1)[C@@H]1CC[C@@H]2CN1C(=O)N2OS(=O)(=O)O on K. pneumoniae H522: 4

---

The following compounds are listed with their measured melting point values.

For O=C(NOC[C@@H]1C[C@H](F)CN1)[C@@H]1CC[C@@H]2CN1C(=O)N2OS(=O)(=O)O the compound record lists melting point as 180 to 183 °C (dec.)

Per the record, O=C(NOC[C@H]1C[C@H](F)CN1)[C@@H]1CC[C@@H]2CN1C(=O)N2OS(=O)(=O)O has melting point of 175 to 178 °C (dec.)

Input O=C(NOC[C@@H]1C[C@@H](F)CN1)[C@@H]1CC[C@@H]2CN1C(=O)N2OS(=O)(=O)O . Output melting point: 160 to 163 °C (dec.)

Lab book: melting point of O=C(NOC[C@H]1C[C@@H](F)CN1)[C@@H]1CC[C@@H]2CN1C(=O)N2OS(=O)(=O)O noted as 207 to 209 °C (dec.)

Hey, just so you know, these numbers are from patent US10500195B2.
